The origin of these recorded values is patent US6605628B1.

# TARGET_OR_SYSTEM: FPTase (Homo sapiens, UniProt P49354+P49356)
# ASSAY_NOTES: in vitro FTase Inhibition Assay, H-Ras used as substrate for farnesylation
# Type: biochemical
# CONDITION_INFO: Table I, read-out: IC50 H-Ras*
pIC50: −log10 of the molar value.
The following molecules are shown together with reported pIC50 values.

| MOLECULE | pIC50 |
| --- | --- |
| Cc1ccc(S(=O)(=O)C2(CCCC#Cc3ccc(Cl)cc3)SC(=O)NC2=O)cc1 (stereo not drawn) [Example 103] | 7.30 to 7.52 |

Task: So what does the record say about pIC50 for Cc1ccc(S(=O)(=O)C2(CCCC#Cc3ccc(S(C)(=O)=O)cc3)SC(=O)NC2=O)cc1 (stereo not drawn) [Example 159] ?
Result: 6.19

Task: And the next one, COC(=O)Nc1ccc(C)c(C#CCCCC2(S(=O)(=O)c3ccc(OC)cc3)SC(=O)N(C(=O)OC)C2=O)c1 (stereo not drawn) [Example 228] ?
Result: 7.15 to 8.40

Task: How about this molecule: O=C1NC(=O)C(CCCC#Cc2ccc(Cl)cc2)(S(=O)(=O)c2cccc3cccnc23)S1 (stereo not drawn) [Example 109]
Result: 6.89 to 7.19

Task: What do you have for Cc1ccc(C(=O)NC(C)(C)C)cc1C#CCCCC1(S(=O)(=O)c2ccc(I)cc2)SC(=O)NC1=O (stereo not drawn) [Example 147] ?
Result: 6.68 to 8.17

Task: // query: COc1ccc(S(=O)(=O)C2(CCCC#Cc3cc(NC(=O)Oc4ccc(Cl)cc4)ccc3C)SC(=O)NC2=O)cc1 (stereo not drawn) [Example 177]
Result: 7.49 to 7.96

Task: // next record COc1ccc(S(=O)(=O)C2(CCCC#Cc3cc(Cl)ccc3Cl)SC(=O)NC2=O)cc1 (stereo not drawn) [Example 114]
Result: 7.49 to 7.89

Task: What about COc1ccc(S(=O)(=O)C2(CCCC#Cc3cc(C(=O)NC(C)(C)C)ccc3C)SC(=O)NC2=O)cc1 (stereo not drawn) [Example 152] ?
Result: 7.80 to 7.96

Task: Now consider O=C1NC(=O)C(CCCC#Cc2ccc(Cl)cc2)(S(=O)(=O)c2ccc3ccccc3c2)S1 (stereo not drawn) [Example 107] .
Result: 6.70 to 6.74

Task: What do you have for COc1ccc(S(=O)(=O)C2(CCCC#Cc3ccc(Cl)cc3Cl)SC(=O)NC2=O)cc1 (stereo not drawn) [Example 117] ?
Result: 7.52 to 7.70

Task: Also O=C1NC(=O)C(CCCC#Cc2ccc([N+](=O)[O-])cc2)(S(=O)(=O)c2ccc(I)cc2)S1 (stereo not drawn) [Example 120] , if possible.
Result: 7.49 to 7.74

Task: Follow-up entry: COc1ccc(S(=O)(=O)C2(CCCC#Cc3ccc([N+](=O)[O-])cc3OC)SC(=O)NC2=O)cc1 (stereo not drawn) [Example 132]
Result: 7.14 to 7.39

Task: // query: O=C1NC(=O)C(CCCC#Cc2ccc(-n3cccc3)cc2)(S(=O)(=O)c2ccc(I)cc2)S1 (stereo not drawn) [Example 162]
Result: 5.92

Task: Also check Cc1ccc([N+](=O)[O-])cc1C#CCCCC1(S(=O)(=O)c2ccc3ccccc3c2)SC(=O)NC1=O (stereo not drawn) [Example 127]
Result: 6.85 to 6.92

Task: Moving on to the next molecule: COC(=O)c1ccc(C)c(C#CCCCC2(S(=O)(=O)c3ccc(OC)cc3)SC(=O)NC2=O)c1 (stereo not drawn) [Example 155]
Result: 6.49 to 8.00

Task: Also check COc1ccc(S(=O)(=O)C2(CCCC#Cc3cccc(N)c3)SC(=O)NC2=O)cc1 (stereo not drawn) [Example 220]
Result: 7.05

Task: // same read-out, input: O=C1NC(=O)C(CCCC#Cc2ccc(Cl)cc2)(S(=O)(=O)c2ccc(OCc3ccccc3)cc2)S1 (stereo not drawn) [Example 111]
Result: 6.82 to 6.96

Task: Moving on to Cc1ccc(S(=O)(=O)C2(CC#Cc3ccc(-c4ccccc4)cc3)SC(=O)NC2=O)cc1 (stereo not drawn) [Example 169]
Result: 7.00
